Target: human cathepsin L (Homo sapiens)
Construct: purchased R&D Systems
Assay: cathepsin L assay
Type: biochemical
Conditions: 10 pM human cathepsin L, Z-FR-AMC 2 μM, class symbols
pIC50: −log10 of the molar value.
PROPERTY: pIC50

record_smiles=O=C1NCC[C@H]1C[C@H](NC(=O)[C@@H]1[C@H]2CCC[C@H]2CN1C(=O)c1cc2c(Cl)ccc(Cl)c2[nH]1)C(=O)CO property=pIC50 observed_value="≤ 5.00"
record_smiles=O=C(NC1CC1)C(=O)[C@H](C[C@@H]1CCNC1=O)NC(=O)[C@@H]1CC2(CCN1C(=O)c1cc3cc(F)ccc3[nH]1)CC2 property=pIC50 observed_value="≤ 5.00"
record_smiles=O=C1NCC[C@H]1C[C@H](NC(=O)[C@@H]1[C@H]2CCC[C@H]2CN1C(=O)c1cc2c(OCc3ccccc3)cccc2[nH]1)C(=O)CO property=pIC50 observed_value="≤ 5.00"
record_smiles=COCCNC(=O)C(=O)[C@H](C[C@@H]1CCNC1=O)NC(=O)[C@@H]1[C@H]2CCC[C@H]2CN1C(=O)c1cc2c(OC)cccc2[nH]1 property=pIC50 observed_value="≤ 5.00"
record_smiles=COc1cccc2[nH]c(C(=O)N3CCc4ccccc4[C@H]3C(=O)N[C@@H](C[C@@H]3CCNC3=O)C(=O)CO)cc12 property=pIC50 observed_value="≤ 5.00"

May I ask what pIC50 has been recorded for O=C(NC1CC1)C(=O)[C@H](C[C@@H]1CCNC1=O)NC(=O)[C@@H]1CC2(CCN1C(=O)c1cc3c(C4CC4)cccc3[nH]1)CC2 ?
5.00 to 6.00
